System: UO-31 renal
protocol: NCI-60 one-dose screen, 48 h
applied.conditions: 10 µM unless noted
Compounds without any hit were thinned out: in the full panel of roughly 83,000, 20% have a hit. The source made the active and inactive calls. Rule for the calls: active = growth percent below 10; inactive = the rest.
// one of t = active, f = inactive, no free text

compound	assigned.category
COc1cccc2c1C(=O)c1c(O)c3c(c(O)c1C2=O)CC(O)(/C(C)=N/NC(=O)CCCCC(=O)N/N=C(\C)C1(O)Cc2c(O)c4c(c(O)c2C(OC2CC(N)C(O)C(C)O2)C1)C(=O)c1c(OC)cccc1C4=O)CC3OC1CC(N)C(O)C(C)O1 (stereo not drawn)	t
CNC(=O)CCN1CCN(CC/C=C2\c3ccccc3Sc3ccc(Cl)cc32)CC1	f
Cc1ccc(N2CCN(C(=S)c3cccs3)CC2)cc1	f

What call does the record list for "O=C1/C(=C2/C=Nc3ccccc32)N(O)c2ccccc21" ?
f

Just curious, what result did "O=C(Nc1cccc(Oc2nnc(Cl)c3ccccc23)c1)Nc1ccc(Cl)c(C(F)(F)F)c1" get here?
t

Returns: the outcome recorded for "Cc1ccc2nc3ccccc3c(NCc3ccccc3)c2c1" in this assay.
f

Tell me the assay call for "COc1cccc(-c2nc3sccn3c2-c2ccnc(NCCNS(=O)(=O)c3cccc(Cl)c3)c2)c1" please.
f

Outcome? "CC(=O)c1ccc(NCC(=O)Nc2ccccn2)cc1"
f

Per the assay record, what outcome was assigned to "O=c1c2cc(F)ccc2sc2c(Nc3cccnc3)nc3ccccc3c12" ?
f

Call for entry "COc1ccc(-c2ccc3c(c2)sc2nc(-c4ccc(F)cc4)cn23)cc1" :
f

Assay outcome for "C=C1C(=O)O[C@H]2[C@H]1CC/C(COC(=O)C(=O)c1c[nH]c3ccc(OC)cc13)=C\CC[C@@]1(C)O[C@@H]21" : what was it?
t

Test call, this compound: "O=C(CCCCCCSc1nc(-c2ccccc2)cc(-c2ccc(Cl)cc2)n1)NO"
t

Hi, do you know how CC(CCc1ccc(Cl)c(Cl)c1)NCc1ccc(C(C)(C)C)cc1 (stereo not drawn) came out in this test?
f
